Just for reference, patent US20070213301A1 is where these values come from.

tested on: HCV replicon; experiment: HCV replicon replication assay (NPTII ELISA); type: cell-based, Hepatitis C virus (Huh-7 cells); conditions: Hepatitis C virus, Huh-7, 72 h, inhibition of HCV replicon replication in Huh-7 HCV replicon-containing cells, three days incubation, NPT level by ELISA; read-out: EC50
pEC50: −log10 of the molar value.
Property measured: pEC50

CCCCCCCCOc1ccc(N(C(=O)COCCOCCOC)c2nc(-c3cccnc3)c(F)s2)cc1C(F)(F)F	> 6.00

Batch request: pEC50 for each of the following molecules.
1. CCCCCCCCc1ccc(N(C(C)=O)c2nc(-c3cccnc3)c(F)s2)cc1C(F)(F)F
2. CCCCCCOc1ccc(N(C(N)=O)c2nc(-c3ccc(F)c(F)c3)cs2)cc1
3. CCCCCOc1ccc(N(C(=O)OC)c2nc(-c3cccnc3)cs2)cc1C(F)(F)F

1: > 6.00; 2: > 6.00; 3: > 6.00

----------
test system: HCV replicon; assay: HCV replicon replication assay (NPTII ELISA); type: cell-based, Hepatitis C virus (Huh-7 cells); settings: Hepatitis C virus, Huh-7, 72 h, inhibition of HCV replicon replication in Huh-7 HCV replicon-containing cells, three days incubation, NPT level by ELISA; read-out: EC50
Property measured: EC50

Example compounds with recorded EC50:
CCCCCOc1ccc(N(C(=O)C2CC2)c2nc(-c3cccnc3)cs2)cc1C(F)(F)F	< 1000 nM
CCCCCCCCc1ccc(N(C(=O)CC(C)(C)c2c(C)cc(C)cc2OP(=O)(O)O)c2nc(-c3cccnc3)c(F)s2)cc1C(F)(F)F	1000 to 10000 nM
CCCCCCCCOc1ccc(N(C(=O)COC(C)=O)c2nc(-c3cccnc3)cs2)cc1	< 1000 nM
CCCCCCCCOc1ccc(N(C(=O)CO)c2nc(-c3cccnc3)cs2)cc1C(F)(F)F	< 1000 nM
CCCCCCOc1ccc(N(C(N)=O)c2nc(-c3cccnc3)cs2)cc1	< 1000 nM

Batch request: EC50 for each of the following compounds.
1. CCCCCOc1ccc(N(C(=O)C2CC2)c2nc(CN(C)C)cs2)cc1C(F)(F)F
2. CCCCCOc1ccc(N(C(=O)C(=O)OC)c2nc(-c3ccc(F)cc3F)cs2)cc1C(F)(F)F
3. NCCN(c1ccc(OCCCCc2cccs2)c(C(F)(F)F)c1)c1nc(-c2cccnc2)c(F)s1

1. 1000 to 10000 nM
2. < 1000 nM
3. 1000 to 10000 nM

----------
Can you tell me EC50 for the items I'm about to list?
tested on: HCV replicon; assay: HCV replicon replication assay (NPTII ELISA); format: cell-based, Hepatitis C virus (Huh-7 cells); details: Hepatitis C virus, Huh-7, 72 h, inhibition of HCV replicon replication in Huh-7 HCV replicon-containing cells, three days incubation, NPT level by ELISA; read-out: EC50

Example compounds with recorded EC50:
CCCCCOc1ccc(N(C(N)=O)c2nc(-c3cccnc3)cs2)cc1F	< 1 µM
CCCCCCCCOc1ccc(N(C(=O)CN(C)C)c2nc(-c3cccnc3)cs2)cc1C(F)(F)F	< 1 µM
CCCCCOc1ccc(N(C(=O)CC(=O)OC)c2nc(-c3ccc(F)cc3)cs2)cc1C(F)(F)F	< 1 µM
CCCCCOc1ccc(N(C(N)=O)c2nc(-c3ccc4c(c3)NC(=O)CO4)cs2)cc1F	> 10 µM
CCCCCCCCOc1ccc(N(C(=O)C(=O)OC)c2nc(-c3ccc(F)c(F)c3)cs2)cc1	< 1 µM

Batch request: EC50 for each of the following compounds.
1. NC(=O)N(c1ccc(OCC2CCCCC2)c(F)c1)c1nc(-c2ccncc2)cs1
2. CCCCOc1ccc(N(C(N)=O)c2nc(-c3ccc(F)c(F)c3)cs2)cc1C(F)(F)F
3. CCCCCOc1ccc(N(C(=O)C(N)=O)c2nc(-c3cccnc3)cs2)cc1C(F)(F)F
4. CCCCCOc1ccc(N(C(N)=O)c2nc(-c3ccc(F)c(F)c3)cs2)cc1F

1. 1 to 10 µM
2. < 1 µM
3. < 1 µM
4. 1 to 10 µM
